Origin of the recorded values: PubChem BioAssay (NCI)

# Tested on: U251 CNS
Outcomes: active, inactive

INSERT INTO measurements (compound, category) VALUES
  ('CNCCNc1c2c(c(NCCNC)c3c(CN(C)C)c[nH]c13)C(=O)c1ccccc1C2=O', 'inactive'),
  ('COc1ccc2c(c1)CCC1C2CC[C@@]2(C)C1CC1=CC(COC(C)=O)C3C(=O)c4ccccc4C(=O)C3C12 (stereo not given in full)', 'inactive'),
  ('CC(C)(C)C(=O)OCOP(=O)(OCOC(=O)C(C)(C)C)C1CCCN(O)C1=O (stereo not given)', 'active'),
  ('COCCOc1cc(F)c2c(Nc3ccc(NC(=O)Cn4cc(C(C)C)nn4)cc3)ncnc2c1', 'inactive'),
  ('Oc1ccc(Cl)cc1Cc1cc(Cl)cc(Cl)c1O', 'inactive');

###

Examples of compounds with documented GI50 follow.
# System: COLO 205 colon
# assay.procedure: NCI tumour cell line growth inhibition, 48 h
measured.attribute: GI50

INSERT INTO assay_data (compound, system, data_value) VALUES
  ('Oc1ccc(Cl)cc1Cc1cc(Cl)cc(Cl)c1O', 'COLO 205 colon', '19500 nM'),
  ('CC(=O)O.CC(=O)O.CC(=O)O.CC(=O)O.CC(=O)O.CC(=O)O.O.[Ti].[Ti]', 'COLO 205 colon', '> 100000 nM'),
  ('CCOc1nc(-c2ccccc2)cc2c(O)c(-c3nnco3)[nH]c(=O)c12', 'COLO 205 colon', '5740 nM'),
  ('CCN1CCN(c2ccc(Nc3cc(N(C)C(=O)Nc4c(Cl)c(OC)cc(OC)c4Cl)ncn3)cc2)CC1', 'COLO 205 colon', '1930 nM'),
  ('COC(=O)/C=C/c1cc(O)c2oc(-c3ccc(O)c(O)c3)c(C(=O)OC)c2c1', 'COLO 205 colon', '8270 nM'),
  ('Cn1cc(C2=C(c3ccc4ccccc4c3)C(=O)NC2=O)c2ccccc21', 'COLO 205 colon', '20800 nM'),
  ('Cc1nc(N)sc1-c1ccnc(Nc2ccc(N3CCOCC3)cc2)n1', 'COLO 205 colon', '488 nM'),
  ('CC1OC2CC(=O)OC2C2=C1C(=O)c1c(O)cccc1C2=O (stereo not given)', 'COLO 205 colon', '17.7 nM'),
  ('Cc1c2cccnc2c(C)c2c1c1cc(CO)ccc1n2C', 'COLO 205 colon', '1510 nM'),
  ('Ic1ccc(Nc2nc3nonc3nc2Nc2ccc(I)cc2)cc1', 'COLO 205 colon', '265 nM');

###

Each item that follows carries a reported TGI.
# System: DMS 114 small cell lung
# assay.procedure: NCI tumour cell line growth inhibition, 48 h
measured.attribute: TGI

INSERT INTO assay_data (compound, system, measured_attribute, data_value) VALUES
  ('C=C(CCCCC)CN1CCCC1[C@@](C)(O)CC(=O)OCC (stereo not given in full)', 'DMS 114 small cell lung', 'TGI', '> 100 µM'),
  ('O=C(O/N=C1/CCCC/C1=C\c1ccccc1)c1ccccc1', 'DMS 114 small cell lung', 'TGI', '31.3 µM'),
  ('CC1CC=CC(O)C1 (stereo not given)', 'DMS 114 small cell lung', 'TGI', '> 100 µM'),
  ('O=c1n(CC2CO2)c(=O)n(CC2CO2)c(=O)n1CC1CO1 (stereo not given)', 'DMS 114 small cell lung', 'TGI', '70.9 µM'),
  ('COc1ccc(NC(=O)CCc2cc(-c3ccc(O)c(OC)c3)nc(NC#N)n2)cc1', 'DMS 114 small cell lung', 'TGI', '> 100 µM'),
  ('O=C1c2ccccc2C2(Br)C(=O)c3ccccc3C12 (stereo not given)', 'DMS 114 small cell lung', 'TGI', '> 100 µM'),
  ('CCC[CH2][Ge]([CH2]CCC)([CH2]CCC)[O]C(=O)CC(=O)c1ccccc1', 'DMS 114 small cell lung', 'TGI', '3.32 µM'),
  ('CC1=CC(/C=C(\C)CCCc2ccoc2)C2(OC(=O)C(C)=C2O)[C@H]2C1CC[C@@H]2C (stereo not given in full)', 'DMS 114 small cell lung', 'TGI', '72.2 µM'),
  ('COC(=O)C1=C(C)N(NC(=O)c2ccccc2)C(C)(O)C12CCOC2=O (stereo not given)', 'DMS 114 small cell lung', 'TGI', '> 100 µM'),
  ('O=[N+]([O-])c1nccn1CC(O)c1ccc(F)cc1 (stereo not given)', 'DMS 114 small cell lung', 'TGI', '> 100 µM');
